Just for reference, ChEMBL document CHEMBL1201862 is where these values come from.

Recorded IC50 values for a group of compounds are listed next.
# system.tested: Nonstructural protein 1 (Influenza A virus, UniProt Q194T2)
# Sequence (Q194T2 whole entry): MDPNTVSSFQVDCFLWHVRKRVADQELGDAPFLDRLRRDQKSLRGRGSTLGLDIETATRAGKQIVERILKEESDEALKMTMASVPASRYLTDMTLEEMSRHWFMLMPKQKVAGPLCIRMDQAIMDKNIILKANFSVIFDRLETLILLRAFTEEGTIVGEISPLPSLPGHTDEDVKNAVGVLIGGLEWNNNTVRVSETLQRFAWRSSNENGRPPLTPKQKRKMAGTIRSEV
# Type: functional, Influenza A virus (A/California/07/2009(H1N1))
Active and inactive are the calls of the source.
parameter: IC50

                                   compound             result
0           Cc1nonc1C(=O)N/N=C/c1ccc(O)cc1O   4.75 µM (active)
1         Nc1ccc2c3[nH]c4cc(N)ccc4cc-3nc2c1   21.1 µM (active)
2  Cc1ccc(C(c2nnnn2Cc2cccs2)N2CCN(Cc3ccc4c(c3)OCO4)CC2)cc1 (configuration not stated)  > 100 µM (active)
3      Oc1cc(CSc2ccc(Cl)cc2)nc(-c2ccccn2)n1   14.4 µM (active)
4  CC12CCC(C(=O)N(CSC(=S)N/N=C\c3ccccc3O)C1=O)C2(C)C (configuration not stated)   2.09 µM (active)
5      Nc1ccccc1C(=O)N=Nc1[nH]c(N)c2ccccc12   20.7 µM (active)
6  CCN(CC)c1ccc(C(=C2C=CC(=[N+](CC)CC)C=C2)c2ccccc2)cc1   10.4 µM (active)

----------
# system.tested: Fatty acid synthase (Homo sapiens)
# Sequence (P49327 whole entry, the tested form may be a part): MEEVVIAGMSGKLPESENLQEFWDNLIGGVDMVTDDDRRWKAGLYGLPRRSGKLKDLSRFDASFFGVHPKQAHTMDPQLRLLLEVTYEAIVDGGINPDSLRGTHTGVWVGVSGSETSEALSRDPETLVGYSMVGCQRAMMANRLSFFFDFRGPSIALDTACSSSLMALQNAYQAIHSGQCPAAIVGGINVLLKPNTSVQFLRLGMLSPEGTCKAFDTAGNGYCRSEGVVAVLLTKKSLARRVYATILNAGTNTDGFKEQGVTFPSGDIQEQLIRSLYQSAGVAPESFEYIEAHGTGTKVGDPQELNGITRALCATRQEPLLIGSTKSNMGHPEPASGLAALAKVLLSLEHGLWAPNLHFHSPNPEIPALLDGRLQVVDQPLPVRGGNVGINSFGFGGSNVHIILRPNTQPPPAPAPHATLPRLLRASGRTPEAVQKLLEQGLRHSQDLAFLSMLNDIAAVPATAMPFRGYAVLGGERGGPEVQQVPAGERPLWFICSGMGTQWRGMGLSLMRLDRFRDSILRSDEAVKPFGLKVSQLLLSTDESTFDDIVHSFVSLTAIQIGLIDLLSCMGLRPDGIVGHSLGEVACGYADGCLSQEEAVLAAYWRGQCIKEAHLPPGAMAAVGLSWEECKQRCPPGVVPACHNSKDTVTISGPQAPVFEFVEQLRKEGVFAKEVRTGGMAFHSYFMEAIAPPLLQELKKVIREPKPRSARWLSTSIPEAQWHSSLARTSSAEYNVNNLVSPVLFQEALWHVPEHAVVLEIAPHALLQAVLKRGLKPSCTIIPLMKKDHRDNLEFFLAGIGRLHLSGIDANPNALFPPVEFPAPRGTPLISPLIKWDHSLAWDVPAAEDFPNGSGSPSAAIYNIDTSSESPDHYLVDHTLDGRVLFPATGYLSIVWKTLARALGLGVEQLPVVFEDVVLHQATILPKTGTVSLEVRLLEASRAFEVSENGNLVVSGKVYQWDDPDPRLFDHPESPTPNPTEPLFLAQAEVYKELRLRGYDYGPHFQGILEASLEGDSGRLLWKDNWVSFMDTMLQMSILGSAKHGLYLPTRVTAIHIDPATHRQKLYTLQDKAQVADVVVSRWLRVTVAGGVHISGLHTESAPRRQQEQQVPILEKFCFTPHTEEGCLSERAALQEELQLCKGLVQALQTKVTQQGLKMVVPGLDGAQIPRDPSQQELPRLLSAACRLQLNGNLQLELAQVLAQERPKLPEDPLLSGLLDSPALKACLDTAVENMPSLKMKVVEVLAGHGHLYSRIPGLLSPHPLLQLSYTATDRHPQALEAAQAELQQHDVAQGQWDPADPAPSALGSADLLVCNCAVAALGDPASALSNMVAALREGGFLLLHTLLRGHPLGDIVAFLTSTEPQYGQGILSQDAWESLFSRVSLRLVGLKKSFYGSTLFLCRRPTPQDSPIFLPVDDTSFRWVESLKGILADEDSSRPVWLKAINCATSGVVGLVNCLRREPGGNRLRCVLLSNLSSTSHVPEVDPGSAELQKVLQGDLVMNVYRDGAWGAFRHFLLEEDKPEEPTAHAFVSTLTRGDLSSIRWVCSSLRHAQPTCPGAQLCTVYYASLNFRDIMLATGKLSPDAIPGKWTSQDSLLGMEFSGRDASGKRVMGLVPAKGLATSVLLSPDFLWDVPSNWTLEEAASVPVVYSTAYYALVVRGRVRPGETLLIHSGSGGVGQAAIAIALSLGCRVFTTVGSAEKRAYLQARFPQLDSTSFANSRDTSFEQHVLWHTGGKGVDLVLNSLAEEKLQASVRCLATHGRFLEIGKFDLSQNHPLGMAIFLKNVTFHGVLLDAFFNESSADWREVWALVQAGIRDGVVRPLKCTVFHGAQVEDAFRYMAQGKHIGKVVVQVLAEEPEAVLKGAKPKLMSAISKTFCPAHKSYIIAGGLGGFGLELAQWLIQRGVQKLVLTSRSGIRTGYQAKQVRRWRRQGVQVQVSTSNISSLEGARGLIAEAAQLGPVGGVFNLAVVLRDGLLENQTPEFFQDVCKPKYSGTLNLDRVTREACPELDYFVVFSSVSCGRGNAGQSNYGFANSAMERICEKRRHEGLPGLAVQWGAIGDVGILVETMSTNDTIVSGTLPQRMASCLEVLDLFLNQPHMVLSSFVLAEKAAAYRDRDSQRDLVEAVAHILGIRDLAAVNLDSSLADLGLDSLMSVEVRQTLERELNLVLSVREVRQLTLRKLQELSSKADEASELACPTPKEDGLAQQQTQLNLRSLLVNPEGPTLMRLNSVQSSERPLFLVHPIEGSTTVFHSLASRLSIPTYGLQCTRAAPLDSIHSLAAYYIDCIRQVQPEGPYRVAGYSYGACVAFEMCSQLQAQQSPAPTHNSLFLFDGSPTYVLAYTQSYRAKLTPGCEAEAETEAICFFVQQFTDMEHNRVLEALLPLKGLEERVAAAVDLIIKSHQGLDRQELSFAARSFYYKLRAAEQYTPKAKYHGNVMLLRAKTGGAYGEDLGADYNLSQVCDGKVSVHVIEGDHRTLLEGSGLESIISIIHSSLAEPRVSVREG
# assay.remarks: FAS thioesterase domain inhibitors, dose response, biochemical, kinetic fluorescence intensity (AID 624326);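 further: rate of fluorescence rise from hydrolysis of a fluorogenic O-methyl fluorescein ester substrate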
# Format: functional
Active and inactive are the calls of the source.
Recorded IC50, one value per entry.
parameter: IC50

In [3]: df
Out[3]:
                                   compound            result
0  Cc1nc2ccc([N+](=O)[O-])cc2c(=O)n1Cc1ccc(F)cc1  4.49 µM (active)
1  O=C(CN1CC(c2ccccc2)CC1=O)N/N=C/c1cc(Br)ccc1O (stereo not given)  4.11 µM (active)
2  O=C(O)CCN(CC(=O)c1ccc(Cl)cc1)S(=O)(=O)c1ccc([N+](=O)[O-])cc1  4.83 µM (active)
3  COc1ccc(CC(=O)N(C)Cc2ccc(C(C)(C)C)cc2)cc1S(=O)(=O)N1CCOCC1  2.02 µM (active)
4  O=C(COC(=O)c1cc([N+](=O)[O-])ccc1Cl)NC1CCCC1  1.12 µM (active)

----------
Observed AC50, system Cytochrome P450 3A4 (Homo sapiens, UniProt P08684).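 Further: CYP3A4 tested as one member of a cytochrome P450 panel screen.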
parameter: AC50

>>> print(df.to_string())
                                   compound                  result
0  CCCN(CCC)CCCNC(=O)c1cc2cc3ccc(OC)cc3nc2o1  15.8 µM (inconclusive)
1  O=c1c2ccccc2nc2n1C(CSc1ccc(F)cc1)CN2 (stereo not given)  31.6 µM (inconclusive)
2  CCCCOc1ccccc1C1CC(=O)NC2=C1C(=O)CCC2 (stereo not given)  15.8 µM (inconclusive)
3  CC(Sc1nnc(Cc2cccs2)n1C1CCCCC1)C(N)=O (stereo not given)  3.98 µM (inconclusive)
4  CCCc1n[nH]c2c1C(c1ccncc1)C(C#N)=C(N)O2 (stereo not given)  39.8 µM (inconclusive)

----------
# system.tested: Insulin-degrading enzyme (Homo sapiens)
# Sequence (P14735 whole entry): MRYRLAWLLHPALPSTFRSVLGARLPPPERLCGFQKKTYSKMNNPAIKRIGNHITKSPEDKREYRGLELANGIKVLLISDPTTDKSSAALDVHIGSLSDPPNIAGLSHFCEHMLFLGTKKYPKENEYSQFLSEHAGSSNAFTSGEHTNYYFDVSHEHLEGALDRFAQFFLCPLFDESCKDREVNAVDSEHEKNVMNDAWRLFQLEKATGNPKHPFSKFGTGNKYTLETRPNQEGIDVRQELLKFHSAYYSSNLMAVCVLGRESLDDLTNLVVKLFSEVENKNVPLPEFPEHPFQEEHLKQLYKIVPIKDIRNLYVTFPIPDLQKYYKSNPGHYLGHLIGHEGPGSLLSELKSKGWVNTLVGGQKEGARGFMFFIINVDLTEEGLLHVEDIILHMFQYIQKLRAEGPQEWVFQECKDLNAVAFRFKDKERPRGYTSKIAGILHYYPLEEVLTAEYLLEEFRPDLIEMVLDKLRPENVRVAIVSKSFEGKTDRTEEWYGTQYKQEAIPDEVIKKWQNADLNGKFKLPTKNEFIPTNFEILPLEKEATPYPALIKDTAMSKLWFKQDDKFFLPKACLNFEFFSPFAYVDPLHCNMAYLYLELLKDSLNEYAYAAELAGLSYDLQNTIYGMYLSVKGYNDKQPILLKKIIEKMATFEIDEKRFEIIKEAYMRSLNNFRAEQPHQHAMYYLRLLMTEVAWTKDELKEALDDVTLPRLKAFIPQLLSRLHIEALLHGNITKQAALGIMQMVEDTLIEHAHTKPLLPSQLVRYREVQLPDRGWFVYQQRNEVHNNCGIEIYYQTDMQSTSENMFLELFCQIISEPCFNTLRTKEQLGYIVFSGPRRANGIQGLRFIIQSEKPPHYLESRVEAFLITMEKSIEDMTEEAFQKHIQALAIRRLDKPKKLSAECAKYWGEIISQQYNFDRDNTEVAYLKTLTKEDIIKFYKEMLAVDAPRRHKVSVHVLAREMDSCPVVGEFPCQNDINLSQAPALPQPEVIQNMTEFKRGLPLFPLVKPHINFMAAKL
# assay.remarks: activators of endogenous IDE in HEK cells, dose response, cell-based, fluorescence polarization (AID 588439)
# Assay type: functional
Activity calls are given as the source filed them.
parameter: EC50

>>> print(df.to_string())
                                   compound  parameter                result
0               CC1=NCCc2c1[nH]c1cc(O)ccc21       EC50  > 54.6 µM (inactive)
1  N#CC(C#N)=C1C=C2C=C(N3CCOCC3)CCC2CC1 (centres undefined)       EC50  > 54.7 µM (inactive)
2         Nc1ccc2c3[nH]c4cc(N)ccc4cc-3nc2c1       EC50  > 54.7 µM (inactive)
3         COc1ccc(N=Nc2nc3ccc(Br)cc3n2C)cc1       EC50  > 54.7 µM (inactive)
